Measured pKi accompanies every entry in the list below.
Molecular target: HCV genotype 1b (BK) NS3 modified enzyme with a R155K mutation (Hepatitis C virus genotype 1b, UniProt P26663, R1181K)
Construct: HCV genotype 1b (BK) NS3 modified enzyme
Assay: HCV NS3 protease time-resolved fluorescence (TRF) assay, genotype 1b R155K
Type: biochemical
Conditions: Ki 1b R155K, first of two values printed in the cell (not explained)
pKi: −log10 of the molar value.
reported.metric: pKi

molecule | reported.metric | assay.result
C=C[C@@H]1C[C@]1(NC(=O)[C@@H]1C[C@@H]2CN1C(=O)[C@H](C(C)(C)C)NC(=O)O[C@@H]1C[C@H]1CCCCCc1c(nc3ccccc3c1OC1CC3CCC(C1)N3)O2)C(=O)NS(=O)(=O)C1(C)CC1 (single isomer, unassigned) [Example 274] | pKi | 10.82
C=C[C@@H]1C[C@]1(NC(=O)[C@@H]1C[C@@H]2CN1C(=O)[C@H](C(C)(C)C)NC(=O)O[C@@H]1C[C@H]1CCCCCc1c(nc3ccccc3c1OC1CC3CCC(C1)N3CCOC)O2)C(=O)NS(=O)(=O)C1(C)CC1 (single isomer, unassigned) [Example 276] | pKi | 10.89
